- testedOn: hTRPV1 (Homo sapiens)
- Construct: expressed in transfected cells; host or cells: HEK293
- Sequence (Q8NER1 whole entry): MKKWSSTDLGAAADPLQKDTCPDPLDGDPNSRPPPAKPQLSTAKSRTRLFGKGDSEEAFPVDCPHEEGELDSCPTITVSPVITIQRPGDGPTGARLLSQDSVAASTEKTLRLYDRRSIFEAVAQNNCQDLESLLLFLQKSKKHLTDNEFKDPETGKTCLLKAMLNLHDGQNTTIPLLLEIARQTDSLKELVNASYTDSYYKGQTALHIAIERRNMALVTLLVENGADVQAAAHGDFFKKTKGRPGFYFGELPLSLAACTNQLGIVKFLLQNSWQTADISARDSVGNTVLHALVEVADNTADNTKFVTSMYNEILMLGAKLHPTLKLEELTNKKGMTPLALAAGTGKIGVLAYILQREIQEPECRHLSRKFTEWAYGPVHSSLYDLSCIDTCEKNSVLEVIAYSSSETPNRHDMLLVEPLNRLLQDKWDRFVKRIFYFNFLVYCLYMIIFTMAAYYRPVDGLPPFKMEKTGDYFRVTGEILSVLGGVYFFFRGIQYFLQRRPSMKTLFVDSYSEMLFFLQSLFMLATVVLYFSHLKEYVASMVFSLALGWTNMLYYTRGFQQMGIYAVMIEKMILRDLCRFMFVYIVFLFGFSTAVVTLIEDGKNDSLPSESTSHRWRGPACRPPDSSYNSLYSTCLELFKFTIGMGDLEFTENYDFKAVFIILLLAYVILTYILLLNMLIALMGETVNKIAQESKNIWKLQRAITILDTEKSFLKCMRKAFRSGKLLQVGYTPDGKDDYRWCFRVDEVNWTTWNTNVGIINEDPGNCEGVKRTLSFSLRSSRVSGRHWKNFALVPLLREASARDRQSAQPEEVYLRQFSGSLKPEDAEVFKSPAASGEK
- methodDescription: Human TRPV1 (hTRPV1) functional assay, FLIPR intracellular Ca2+, capsaicin challenge
- Format: cell-based
- conditionInfo: test concentration of 0.5 μm; HEK293 cells expressing hTRPV1, capsaicin 0.030 μM challenge; read-out: percent inhibition (symbol a)
observationType: inhibition at 0.5 µM (%)

Nc1ccccc1-c1ccc2[nH]c(COc3ccc(C(F)(F)F)cc3)nc2c1 [Cpd 122] :: 21

a. NS(=O)(=O)c1ccccc1-c1ccc2[nH]c(COc3ccc4ncccc4c3)nc2c1 [Cpd 37]
b. NS(=O)(=O)c1ccccc1-c1ccc2[nH]c(COc3ccc(Cl)c(Cl)c3)nc2c1 [Cpd 29]
c. NS(=O)(=O)c1ccccc1-c1ccc2[nH]c(COc3ccncc3)nc2c1 [Cpd 38]
d. CC(O)c1ccc(-c2ccc3[nH]c(COc4ccc(C(F)(F)F)cc4)nc3c2)cc1 (stereo not shown) [Cpd 112]
e. Oc1ccc(-c2ccc3[nH]c(COc4ccc(C(F)(F)F)cc4)nc3c2)cc1 [Cpd 121]
Rank descending by inhibition at 0.5 µM. In your reply, arrange the labels in the requested order.
b, a, c, e, d

P. NS(=O)(=O)c1ccc(C(F)(F)F)cc1-c1ccc2[nH]c(COc3ccc(C(F)(F)F)cc3)nc2c1 [Cpd 132]
Q. CC(=O)Nc1ccccc1-c1ccc2[nH]c(COc3ccc(C(F)(F)F)cc3)nc2c1 [Cpd 113]
R. Oc1cccc(-c2ccc3[nH]c(COc4ccc(C(F)(F)F)cc4)nc3c2)c1 [Cpd 120]
S. Cc1ccc(-c2ccc3[nH]c(COc4ccc(C(F)(F)F)cc4)nc3c2)cc1 [Cpd 109]
Order the 4 compounds from highest to lowest inhibition at 0.5 µM. Dear reader, please state the labels in the requested order.
P, Q, R, S

P. CNS(=O)(=O)c1ccccc1-c1ccc2[nH]c(C(F)(F)Oc3ccc(C(F)(F)F)cc3)nc2c1 [Cpd 140]
Q. NS(=O)(=O)c1ccccc1-c1ccc2[nH]c(COc3ccccc3F)nc2c1 [Cpd 3]
// which entry has the larger inhibition at 0.5 µM value, P or Q ? Label of pick, please.
P

I. Cn1c(COc2ccc(C(F)(F)F)cc2)nc2cc(-c3ccccc3S(N)(=O)=O)ccc21 [Cpd 40]
II. OCc1cccc(-c2ccc3[nH]c(COc4ccc(C(F)(F)F)cc4)nc3c2)c1 [Cpd 117]
// pick larger inhibition at 0.5 µM from pair: I vs II Identify your pick by its label.
I

A. CCOc1ccc(OCc2nc3cc(-c4ccccc4S(N)(=O)=O)ccc3[nH]2)cc1 [Cpd 33]
B. NS(=O)(=O)c1ccc(-c2ccc3[nH]c(COc4ccc(C(F)(F)F)cc4)nc3c2)cc1 [Cpd 105]
Which numeric inhibition at 0.5 µM is bigger, that of A or that of B ? Selection: enter the item's label.
A
(A: 100%, B: 7%)

I. NS(=O)(=O)c1cc(C(F)(F)F)ccc1-c1ccc2[nH]c(COc3ccc(C(F)(F)F)cc3)nc2c1 [Cpd 133]
II. CS(=O)(=O)c1cccc(-c2ccc3[nH]c(COc4ccc(C(F)(F)F)cc4)nc3c2)c1 [Cpd 99]
III. OCc1ccc(-c2ccc3[nH]c(COc4ccc(C(F)(F)F)cc4)nc3c2)cc1 [Cpd 118]
IV. CN(C)S(=O)(=O)c1ccc(-c2ccc3[nH]c(COc4ccc(C(F)(F)F)cc4)nc3c2)cc1 [Cpd 129]
Reorder: inhibition at 0.5 µM, max to min. Lab note: record answer as labels in requested order.
I, II, IV, III

P. NS(=O)(=O)c1ccccc1-c1ccc2[nH]c(COc3ccc(F)cc3)nc2c1 [Cpd 5]
Q. CN(C)S(=O)(=O)c1cccc(-c2ccc3[nH]c(COc4ccc(C(F)(F)F)cc4)nc3c2)c1 [Cpd 128]
R. Nc1cccc(-c2ccc3[nH]c(COc4ccc(C(F)(F)F)cc4)nc3c2)c1 [Cpd 123]
Descending sort on inhibition at 0.5 µM required. Use the labels to give the ranking in the order requested.
P, Q, R
(P: 71%, Q: 13%, R: 7%)

P. CS(=O)(=O)c1ccccc1-c1ccc2[nH]c(COc3ccc(C(F)(F)F)cc3)nc2c1 [Cpd 98]
Q. Cc1ccccc1-c1ccc2[nH]c(COc3ccc(C(F)(F)F)cc3)nc2c1 [Cpd 107]
Which value of inhibition at 0.5 µM is numerically greater: that of P or that of Q ? In your reply, give the label of the chosen option.
P
